# Tested on: MS2 coat protein
# Test details: apparent KD of MS2 coat protein; designed switch direction (-1 OFF switch, 1 ON switch): -1; higher = weaker reporter binding
# Condition: input ligand: none
Property label: apparent KD of MS2 coat protein (µM)
A number alone suffices; assume µM.

Ask: Please give the measured apparent KD of MS2 coat protein for this sequence: GCCAUGUAAGGAUAUAACCGUCUUCAUGAACAAUGAGGAUGUUAGAAGGUACAUGAGGAUCACCCAUGUCCUUC [Eternabot (Original) Solution 6] (Eterna round: R97, puzzle: Exclusion 4)
Result: 0.0125

Ask: Similarly, GGCAUGUGAGGAUAUGUACCUGAGUGCUUUGCGCUCAGGAAACAGAAGGCACAUGAGGAUCACCCAUGUGAAAU [jl-ex4-4.48 ViennaUCT mod] (Eterna round: R97, puzzle: Exclusion 4) ?
Result: 0.251

Ask: Try this sequence too: CUAAAUCAUGUAGGAUAUGCGUGGCGAAGCUAUGCAGAAGGACAUGAGGAUCACCCAUGUCUUUCCGUCUGAGUACAGACGGGA [Mat - Exclusion NG 1 - Mod of JL - D45] (Eterna round: R96, puzzle: Exclusion NG 1)
Result: 0.018

Alright, here's another sequence for you.
Ask: Look up apparent KD of MS2 coat protein: CUGCUGGAGCGGCGCUUUGGUCGUACAUGAGGAUCACCCAUGUAGGAUAUGGUAAAAUUCGCCUGCUAGAAGGAUAGAGUGGUC [salish99_ExNG3_r04_617] (Eterna round: R96, puzzle: Exclusion NG 3)
Result: 0.0881

###

# Tested on: K4 kissing-loop RNA reporter
# Test details: apparent KD of K4 kissing-loop reporter; higher = weaker reporter binding
# Condition: Eterna round: R107; input ligand: theophylline 20 uM
Property label: apparent KD of K4 kissing-loop reporter (nM)
Give the value, in units of nM, as a plain number.

Ask: Look up apparent KD of K4 kissing-loop reporter: AAAGCAGUAUACUGCAAGACCUAUACUGAUACCAGAGUCAAUUGACUCCCUUGGCAGCGGAUCGAGUGAUGUUCGUAAGGUCAAA [AK4.1 SS Theophylline A]
Result: 734

Continuing:
Ask: Look up apparent KD of K4 kissing-loop reporter for this sequence: GUCAUCAGAUCGCAAGAUCUGAUAGCCGAUACCAGCGCGAAGGUGCGCCCUUGGCAGCGGCACCGAGUGAUGUUCGGUCAGACGA [#2 Same State - Theophylline A Attempt #5 (HarryS)]
Result: 330

###

# Tested on: K4 kissing-loop RNA reporter
# Test details: apparent KD of K4 kissing-loop reporter; higher = weaker reporter binding
# Condition: Eterna round: R107; input ligand: arginine 13.2 mM
Property label: apparent KD of K4 kissing-loop reporter (nM)
Kindly answer with a numeric value in nM, unit omitted.

Field: example entries. Status: answers known.
Ask: // lookup apparent KD of K4 kissing-loop reporter | system=K4 kissing-loop RNA reporter | key= GUUACGCAUGGAAGGAGCGCACUCCGAUUGAUCGACACAGUGAUGUUGUGGUUCGUUCGAAUGCAGGUAGGUCGCCAUGUGUAAC [Ex Arginine B K4 17];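 further: bound reporter read as fluorescence of individual clusters on recovered sequencing chips by microscopy, with normalized cluster intensities fitted with a binding model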
Result: 250

Ask: Further, for AGACAUAUGACUGUAUGUUUCCAAGGUGUCAAGGAUAUAGUAAACACUAGAAGGUGAGAUCACAGGAGUGAUGUUCGAAAAUGGA [theeternabot_sameState_KL_FMN_A_14] ?
Result: 208

Ask: Now consider UGAUUGGCGAAAGUAGUGAUGUUACGAACAUAGGAUAUUAGAGGAAUAAGAAGGAUGAAUGAGAAAGGAAUAAAUUGUUGGUUGG [#08 K4 FMN A Same State] and answer again.
Result: 64

Ask: Now the same for GCGGGCCAGACGGCCGCCACUCCGGGCAGUGAUGUUGCGAAAAUUCUACUAGAGUGAUGUUCUACGAGGACCGGGUCGGAACGCG [Exclusion Tryptophan B Gf 12]
Result: 476

Ask: Now the sequence AGGAAGUGAGAAGGAUAUUACACUCGGAAGCGCUAGUGAUGUUAGCAUAGAAACAAGGGAACAUGGUAAGAAGGUCUUACAAUGA [theeternabot_sameState_KL_FMN_B_2]
Result: 71.6

---
Ask: Missing value: apparent KD of K4 kissing-loop reporter, K4 kissing-loop RNA reporter, entry CAUACGCAUGGAGGAUAUGAGAUUACUCAUAUCAUUUAAUAUUCUCAGUGAUGUUGAGAUUUAAACUCAGAAGGCCAUGUGUAUG [Ex FMN B 12] . Fill in?
Result: 331

Ask: Then AUUAGGCGAAGUGAUGUUUCAUAUAAUGGCAAGGAUAUGUCCUUACACAGAAGGUGCUCUUAGUCAGGUUAUAUUAGGACUGCUA [theeternabot_exclusion_KL_FMN_A_42] ?
Result: 434

###

# Test system: MS2 coat protein
# Test details: apparent KD of MS2 coat protein; designed switch direction (-1 OFF switch, 1 ON switch): 1; higher = weaker reporter binding
# Condition: input ligand: microRNA oligo, concentration not stated
apparent KD of MS2 coat protein by entry:
// note: answer is a bare numeric in µM

Ask: Entry UGGUACAUGGGAGGAUAUCUCAUGGUGACAUGAGGAUCACCCAUGUAGUUGGUGCCGAAAGGCUGAGAGAAGGCCCAUGUACCU [JL SSNG1 3.76] (Eterna round: R96, puzzle: Same State NG 2) : reported apparent KD of MS2 coat protein = ?
Result: 0.0593

Ask: Same read-out for GGUGCCAAAUAAGCCUACAUGAGGAUCACCCAUGUAUGUAGGCAGGAUAUCGUUUGCAAAGCAAACGAGAAGGGCCUAGGCACC [Mat - Same State NG 3 - JL Mod - D62] (Eterna round: R96, puzzle: Same State NG 3) ?
Result: 0.0185

###

Attribute: apparent KD of MS2 coat protein
# Tested on: MS2 coat protein
# Test details: apparent KD of MS2 coat protein; higher = weaker reporter binding
# Condition: Eterna round: R107; input ligand: theophylline 20 uM
Output spec: scalar in nM, unitless text.

Below, each entry is followed by its recorded apparent KD of MS2 coat protein result.
Ask: # apparent KD of MS2 coat protein lookup, item GGGUGGUAGGCGGCCGCCACUGAUUUUCAUUUAUAGAUGACAUGAGGAUCACCCAUGUUUAUGUGCAGGACCGGGCCUGUUGUGG [aaaS]
Result: 74.2

Ask: Next: UCAUGACAUGGGAAUAAAUAAGAAGGCGAAGGAGCGUGAAGAUUCACAGGUAGGUCGCGCAAAAUACAUGAGGAUCACCCAUGUU [JR_Nu_ExcArginiA_Sub032]
Result: 53.2

Ask: Further, for AAGUGGCACGGAAGGAGCGAGUUUACCUAAAUAACAUGAGGAUCACCCAUGUAUAAUGGGACUCAGGUAGGUCGCCGUUGUCACU [Same State Arginine B GF 23] ?
Result: 43.1

Ask: Entry GGGUACAUCACGGCCGCCACUCAUGUAAAUACAUGAGGAUCACCCAUGUCGAUGGAGACAUCGGAGAGGACCGGGUGAUGUACCG please
Result: 394

Ask: And then UACAUAUGCCGAAGGAGCGCGAGAUGCAAAGCAUCAAUCCUUACAUGAGGAUCACCCAUGUCGCAGGUAGGUCGCGGCAUAUGUU [ArgBX 2] , what is it?
Result: 44.3

We now examine a further sequence.
Ask: Requested read-out: apparent KD of MS2 coat protein. Entry: AUGGAGACCUCGGCCGCCACUCUCCAUGAGGAUCUCCCAUGUAACAUGAGGAUCACCCAUGUACUGAGGACCGGGAGGUCCUUGA [Same State Tryptophan B GF 17]
Result: 10.8

###

# Tested on: MS2 coat protein
# Test details: apparent KD of MS2 coat protein; higher = weaker reporter binding
# Condition: Eterna round: R107; input ligand: arginine 13.2 mM
Catalogue of sequences with associated apparent KD of MS2 coat protein
Please state the figure in µM; there is no need to write the unit.

Ask: Fill in the recorded apparent KD of MS2 coat protein for this sequence, with MS2 coat protein as test system: AAAUAAAUACAUGAGGAUCACCCAUGUGAAGGAGCGCCCGUUAGGGCAGGUAGGUCGCGCAUGAAUAACUCCGUGCAAAAGCACA [ArgEX 19 #OpenEnded]
Result: 0.0578

Ask: Field entry: CUAUAAAUAUGAAGGAGCGUCGAAAAUGGGUAAACAUGAGGAUCACCCAUGUAAAGGGAACGACAGGUAGGUCGCAUAUUUAUAG [AstromonsSSArgB#11]
Result: 0.139

Ask: Moving on to AUGGAGACCUCGGCCGCCACUCUCCAUGAGGAUCUCCCAUGUAACAUGAGGAUCACCCAUGUACUGAGGACCGGGAGGUCCUUGA [Same State Tryptophan B GF 17]
Result: 0.0079

Ask: What do you get for AGAUUCGACACGGCCGCCACUUUCAGUGGCUGGUGUCAUGGUGCACAUGAGGAUCACCCAUGUGGAAGGACCGGGUGUUGAGUCU [XTryp B #26] ?
Result: 0.0123

Ask: Similarly, AAAAUCCUACUUGAGGAUCACCCAGGUGAAGGAGCGCCCGAAAGGGCAGGUAGGUCGCACCUGAGGAUCACCCUGGUAAACCUAA [ArgEX 8 #DoubleMS2 #OpenEnded] ?
Result: 0.0791

Ask: // query: AAAACAUGAGGAUCACCCAUGUGGUGAGAAGGAGCGUCGGAAAUGACAGGUAGGUCGCUUAUCCGUAAGUAUUAGUGUUAGUACA [SSArg A #1]
Result: 0.14

Ask: Also, UGGUACAUGGCGGCCGCCACUGGGUUGAAAACCUGAGGAUCACCCUGGUAAAACGCGAAAGCGACUAGGACCGGGUCAUGUACCU please.
Result: 0.167

Ask: And for GAGCUGAUGUAGAAAUUUUAUUUCUGAGAUACCAGUACAGAAAUGUACCCUUGGCAGCUCAGUUUUACAUGAGGAUCACCCAUGU [Ex Theophylline A 15] ?
Result: 0.0148

Ask: For GCGAUGGAGCGAAGGAGCGUGCUGGUACAUGAGGAUCACCCAUGUGAGUCGCAGCGCUAAGCACAGGUAGGUCGCGCUCCAUCGC [EAB NP+V+V2 #11] then?
Result: 0.0491

Ask: Next record, please: ACAUGAAGAACAGCGGUGGGCGCGCUCGAUACCAGUAUUUUAAACUACCCUUGGCAGCGACAUGAGGAUCACCCAUGUGAGAUGA [XTheo A #6]
Result: 0.0169

Ask: Same thing, different sequence: AGGGACAUGAGGAUCACCCAUGUUGAAACUCGAGGACCGGUACGGCCGCCACUCGUAUAAUCGAUGUCCAUUUGGGAUUCCGGCU [theeternabot_sameState_MS2_Trp_A_17]
Result: 0.0214

Ask: Also GAACAUGAGGAUCACCCAUGUAAAACAGAUACCAGUGAUAUAAUACACCCUUGGCAGCUGUAGCUGAAUAAUAAUUCCCUCAAGC [#19 SameState-TheophyllineA] ?
Result: 0.017
